Origin of values: PubChem BioAssay (NCATS)

Test system: CP194
experiment.description: qHTS profiling for inhibitors of Plasmodium falciparum proliferation (AID 504749); also: nearly all actives have a fitted effect of over 60% in size; also: potency is read from the fitted curve at half-maximal effect
condition: P. falciparum in erythrocytes, SYBR Green DNA, 72 h; series mostly up to 28.7 µM
Inconclusive results are not listed. Activity calls are given as the source filed them. Calls follow the shape of the dose curve; as a rule, active = well fitted inhibition curve with a large enough effect; inconclusive = small, poorly fitted or top-dose-only effect; inactive = flat fitted curve, though single readings scatter.
assay.metric: Potency

Take a look at these entries with their results.
[
  {
    "compound": "CC1(C)CO[C@@H](CC(=O)O)CN1",
    "Potency": "inactive"
  },
  {
    "compound": "O=C(O)c1ccccn1",
    "Potency": "inactive"
  },
  {
    "compound": "O=C1O[C@H]([C@@H](O)CO)C(O)=C1O",
    "Potency": "inactive"
  },
  {
    "compound": "Cc1ccc(C(C)C)cc2c(C)ccc1-2",
    "Potency": "inactive"
  },
  {
    "compound": "CC(O)CN(CCN(CC(C)O)CC(C)O)CC(C)O (stereo not drawn)",
    "Potency": "inactive"
  },
  {
    "compound": "Cc1cc(N)c2ccccc2[n+]1CCCCCCCCCC[n+]1c(C)cc(N)c2ccccc21",
    "Potency": "361 nM (active)"
  },
  {
    "compound": "COc1ccc2c(c1)C(=O)N(CCc1ccc(S(=O)(=O)NC(=O)NC3CCCCC3)cc1)C(=O)C2(C)C",
    "Potency": "inactive"
  }
]

Moving on to another compound below.
GET /value?item= CCC(=O)c1ccc(O)cc1 &field=Potency returns inactive

----------
experiment.description: S16 Schwann cell viability assay (CellTiter-Glo assay) (AID 624031); also: nearly all actives have a fitted effect of over 70% in size
condition: S16 rat Schwann cells viability, 24 h; series mostly up to 57.5 µM
Results filed as inconclusive are left out. The source made the active and inactive calls. The call rests on the fitted dose curve; in most records, active means well fitted cell-killing curve with a large enough effect; inconclusive means small, poorly fitted or top-dose-only effect, or effect the other way; inactive means flat fitted curve, though single readings scatter.
The reply should be one of these categories: true (active), false (inactive)

[
  {
    "molecule": "CCCCN(CCCC)CC(O)c1cc(Cl)cc2c1-c1ccc(Cl)cc1/C2=C/c1ccc(Cl)cc1 (configuration not stated)",
    "group.label": "true"
  },
  {
    "molecule": "CCOc1ccc2ccccc2c1C(=O)N[C@@H]1C(=O)N2[C@@H]1SC(C)(C)[C@@H]2C(=O)O",
    "group.label": "false"
  },
  {
    "molecule": "CC(O)CN(CCN(CC(C)O)CC(C)O)CC(C)O (configuration not stated)",
    "group.label": "false"
  },
  {
    "molecule": "COC(=O)C1=C(C)NC(C)=C(C(=O)OC)C1c1ccccc1[N+](=O)[O-]",
    "group.label": "false"
  },
  {
    "molecule": "O=C(O)CN1C(=O)c2cccc3cccc(c23)C1=O",
    "group.label": "false"
  }
]

We now examine a further molecule.
## Input Give the logged outcome of this assay for the following molecule: CCCCC(CC)COC(=O)c1ccccc1O (configuration not stated)
## Output false

----------
experiment.description: Primary qHTS for inhibitors of nuclear receptor binding SET domain protein 2 (NSD2) in an isogenic RCH-ACV NSD2 p.E1099K mutant (9B) (AID 1645876); also: nearly all actives have a fitted effect of over 70% in size
condition: RCH-ACV (leukaemia line) NSD2 E1099K (9B) viability, CellTiter-Glo, 72 h; series mostly up to 44.9 µM
Results filed as inconclusive are left out. Active and inactive are the calls of the source. The call rests on the fitted dose curve; in most records, active means well fitted inhibition curve with a large enough effect; inconclusive means small, poorly fitted or top-dose-only effect; inactive means flat fitted curve, though single readings scatter.
Hi! Could you answer with just one of these? label 1 = active, label 0 = inactive

The following molecules have reported results that may help.
[
  {
    "molecule": "O=C(Oc1ccccc1C(=O)O)c1ccccc1O",
    "group.label": "label 0"
  },
  {
    "molecule": "O=c1cc(CO)occ1O",
    "group.label": "label 0"
  },
  {
    "molecule": "NS(=O)(=O)c1cc2c(cc1C(F)(F)F)NC(Cc1ccccc1)NS2(=O)=O (stereo not given)",
    "group.label": "label 0"
  },
  {
    "molecule": "COc1ccc2[nH]c(S(=O)Cc3ncc(C)c(OC)c3C)nc2n1 (stereo not given)",
    "group.label": "label 0"
  },
  {
    "molecule": "CCOC(CN1CCN(CC(C)C(=O)c2ccccc2)CC1)c1ccccc1 (stereo not given)",
    "group.label": "label 0"
  },
  {
    "molecule": "c1ccc2c(CC3=NCCN3)cccc2c1",
    "group.label": "label 0"
  }
]

## Input # fetch the recorded call for C[C@H]1O[C@@H](n2cc(F)c(=O)[nH]c2=O)[C@H](O)[C@@H]1O here
## Output label 1

## Input Just curious, what result did O=C(O)[C@@H]1CSCN1 get here?
## Output label 0

## Input Called result for CNC(=O)Oc1ccc2c(c1)[C@]1(C)CCN(C)[C@@H]1N2C
## Output label 0

## Input Which outcome was entered for the molecule Cc1cc2c(cc1S(N)(=O)=O)S(=O)(=O)CCC2 in this test?
## Output label 0

## Input Recorded test call requested for CCCn1cnc2c1c(=O)n(CCCCC(C)=O)c(=O)n2C
## Output label 0

## Input Outcome? [Cl][In]([Cl])[Cl]
## Output label 1

## Input // param item: COC(=O)[C@H]1[C@H]2C[C@@H]3c4[nH]c5cc(OC)ccc5c4CCN3C[C@H]2C[C@@H](OC(=O)COc2ccc(OC)cc2)[C@@H]1OC ; yields the recorded call
## Output label 0

## Input So what was the verdict on [O-][n+]1cccc(CO)c1 in this test?
## Output label 0

## Input Assay result, entry CCCCC(CC)COC(=O)c1ccccc1O (stereo not given) — outcome?
## Output label 0
